- Study system: Sodium-dependent serotonin transporter (Homo sapiens, UniProt P31645)
- Sequence (P31645 whole entry): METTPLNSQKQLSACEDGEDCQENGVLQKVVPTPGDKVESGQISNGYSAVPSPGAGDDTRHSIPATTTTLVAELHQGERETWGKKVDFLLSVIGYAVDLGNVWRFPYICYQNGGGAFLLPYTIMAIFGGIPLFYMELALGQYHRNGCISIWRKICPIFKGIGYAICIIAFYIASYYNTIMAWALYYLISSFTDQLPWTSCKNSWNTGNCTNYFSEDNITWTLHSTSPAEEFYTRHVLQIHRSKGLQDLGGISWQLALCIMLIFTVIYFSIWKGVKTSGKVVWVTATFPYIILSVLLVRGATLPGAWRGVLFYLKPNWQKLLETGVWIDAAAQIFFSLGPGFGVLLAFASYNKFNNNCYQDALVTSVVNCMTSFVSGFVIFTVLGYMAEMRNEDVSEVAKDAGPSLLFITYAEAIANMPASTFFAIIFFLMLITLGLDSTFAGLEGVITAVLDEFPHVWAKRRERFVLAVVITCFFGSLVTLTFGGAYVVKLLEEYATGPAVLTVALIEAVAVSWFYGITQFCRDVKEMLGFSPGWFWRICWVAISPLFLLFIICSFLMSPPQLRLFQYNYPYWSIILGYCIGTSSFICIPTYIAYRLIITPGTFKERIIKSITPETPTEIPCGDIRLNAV
- Condition label: read-out: Ki
- Description: Displacement of [3H]Citalopram from human SERT by liquid scintillation counting
Recorded endpoint: Ki (nM)
Response body: numeric value in nM, unit text excluded.

Example results:
OC1(c2ccc(Cl)cc2)CCN(CCCCc2nc3ccccc3s2)CC1: 922
O=C(CCCN1CCCN(c2ccc(Cl)cc2)CC1)c1nc2ccccc2s1: 5.3
O=C(CCCCN1CCN(c2ccc(Cl)cc2)CC1)c1nc2ccccc2s1: 81

Pending compound:
Ask: Which Ki is listed for Clc1ccc(N2CCN(CCCCc3nc4ccccc4s3)CC2)cc1 ?
Result: 166

###

Here's a batch of compounds along with measured log10(Ki) for D(2) dopamine receptor (Homo sapiens, UniProt P14416).
Please be aware that the numbers have been log10-transformed from Ki in nM.

Example results:
O=C(CCCCN1CCC(n2c(=O)[nH]c3cc(Cl)ccc32)CC1)c1nc2ccccc2s1: 2.34
OC1(c2ccc(Cl)cc2)CCN(CCCCc2nc3ccccc3s2)CC1: 2.30

Ask: Record O=C(CCCN1CCN(c2ccc(Cl)cc2)CC1)c1nc2ccccc2s1 : what is its log10(Ki) with D(2) dopamine receptor (Homo sapiens, UniProt P14416)?
Result: 3.92

Ask: Record O=C(CCCN1CCC(c2ccccc2)CC1)c1nc2ccccc2s1 : what is its log10(Ki) with D(2) dopamine receptor (Homo sapiens, UniProt P14416)?
Result: 2.72

Ask: Record N#Cc1ccc2[nH]cc(CCCCN3CCN(c4ccc5oc(C(N)=O)cc5c4)CC3)c2c1 : what is its log10(Ki) with D(2) dopamine receptor (Homo sapiens, UniProt P14416)?
Result: 2.82

Ask: Record O=C(CCCCN1CCN(c2ccc(Cl)cc2)CC1)c1nc2ccccc2s1 : what is its log10(Ki) with D(2) dopamine receptor (Homo sapiens, UniProt P14416)?
Result: 3.68

Ask: Record Clc1ccc(N2CCN(CCCCc3nc4ccccc4s3)CC2)cc1 : what is its log10(Ki) with D(2) dopamine receptor (Homo sapiens, UniProt P14416)?
Result: 2.34

Ask: Record c1ccc2c(c1)CCN(CCCCc1nc3ccccc3s1)C2 : what is its log10(Ki) with D(2) dopamine receptor (Homo sapiens, UniProt P14416)?
Result: 1.49

Ask: Record c1ccc2c(c1)CN(CCCCc1nc3ccccc3s1)C2 : what is its log10(Ki) with D(2) dopamine receptor (Homo sapiens, UniProt P14416)?
Result: 3.00

###

Entries and their Ki
- Study system: 5-hydroxytryptamine receptor 2C (Homo sapiens)
- Sequence (P28335 whole entry): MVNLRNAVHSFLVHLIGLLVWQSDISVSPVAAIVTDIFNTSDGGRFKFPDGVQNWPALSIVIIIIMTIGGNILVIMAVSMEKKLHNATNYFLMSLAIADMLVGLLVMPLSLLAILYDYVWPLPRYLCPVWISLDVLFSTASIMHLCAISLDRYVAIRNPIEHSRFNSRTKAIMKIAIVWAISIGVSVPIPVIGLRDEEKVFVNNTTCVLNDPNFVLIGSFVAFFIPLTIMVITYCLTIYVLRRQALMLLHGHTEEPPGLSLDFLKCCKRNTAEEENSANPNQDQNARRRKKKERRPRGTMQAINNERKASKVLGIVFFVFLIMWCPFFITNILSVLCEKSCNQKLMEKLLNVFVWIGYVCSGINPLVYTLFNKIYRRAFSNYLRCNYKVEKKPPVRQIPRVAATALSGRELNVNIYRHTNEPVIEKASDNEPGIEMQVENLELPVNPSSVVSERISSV
Response body: numeric value in µM, unit text excluded.

Example results:
O=C(CCCCN1CCC(c2ccccc2)CC1)c1nc2ccccc2s1: 3.74
c1ccc2c(c1)CCN(CCCCc1nc3ccccc3s1)C2: 6.27
Clc1ccc(N2CCN(CCCc3nc4ccccc4s3)CC2)cc1: 4.65

Pending compound:
Ask: Which Ki is listed for Clc1ccc(N2CCN(CCCCc3nc4ccccc4s3)CC2)cc1 ?
Result: 6.21

###

- Study system: D(4) dopamine receptor (Rattus norvegicus)
- Sequence (P30729 whole entry): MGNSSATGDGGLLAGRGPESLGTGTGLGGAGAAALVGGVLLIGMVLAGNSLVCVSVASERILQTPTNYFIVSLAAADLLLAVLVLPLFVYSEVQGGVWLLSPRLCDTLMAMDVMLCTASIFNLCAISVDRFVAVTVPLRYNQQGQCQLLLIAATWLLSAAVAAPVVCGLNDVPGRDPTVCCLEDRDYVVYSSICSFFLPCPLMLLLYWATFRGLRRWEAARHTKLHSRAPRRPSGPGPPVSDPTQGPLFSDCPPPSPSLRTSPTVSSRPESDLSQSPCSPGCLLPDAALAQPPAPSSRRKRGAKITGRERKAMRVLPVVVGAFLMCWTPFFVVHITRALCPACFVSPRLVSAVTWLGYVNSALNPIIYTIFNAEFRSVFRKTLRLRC
- Condition label: read-out: Ki
- Description: Displacement of [3H]N-methylspiperone from rat dopamine D4 receptor by liquid scintillation counting
Entries and their Ki
Response body: numeric value in nM, unit text excluded.

Example results:
O=C(CCCCN1CCC(c2ccccc2)CC1)c1nc2ccccc2s1: 180
Clc1ccc(N2CCN(CCCc3nc4ccccc4s3)CC2)cc1: 31
O=C(CCCCN1Cc2ccccc2C1)c1nc2ccccc2s1: 512
O=C(CCCCN1CCC2(CC1)C(=O)NCN2c1ccccc1)c1nc2ccccc2s1: 162
c1ccc2c(c1)CCN(CCCCc1nc3ccccc3s1)C2: 65.5
O=C(CCCCN1CCN(c2ccc(Cl)cc2)CC1)c1nc2ccccc2s1: 100
O=C(CCCN1CCC(c2ccccc2)CC1)c1nc2ccccc2s1: 44.4
OC1(c2ccc(Cl)cc2)CCN(CCCCc2nc3ccccc3s2)CC1: 140
O=C(CCCN1CCN(c2ccc(Cl)cc2)CC1)c1nc2ccccc2s1: 342
c1cnc(N2CCN(CCCCc3nc4ccccc4s3)CC2)nc1: 0.8

Ask: Which Ki is listed for O=C(CCCCN1CCC(n2c(=O)[nH]c3cc(Cl)ccc32)CC1)c1nc2ccccc2s1 ?
Result: 1710

Ask: Which Ki is listed for O=C(CCCCN1CCN(c2ccccc2)CC1)c1nc2ccccc2s1 ?
Result: 105

Ask: Which Ki is listed for O=C(CCCN1CCN(c2ncccn2)CC1)c1nc2ccccc2s1 ?
Result: 51.5

Ask: Which Ki is listed for c1ccc2c(c1)CN(CCCCc1nc3ccccc3s1)C2 ?
Result: 141

Ask: Which Ki is listed for Clc1ccc(N2CCN(CCCCc3nc4ccccc4s3)CC2)cc1 ?
Result: 4

###

Entries and their Ki
- Study system: 5-hydroxytryptamine receptor 1A (Homo sapiens, UniProt P08908)
- Sequence (P08908 whole entry): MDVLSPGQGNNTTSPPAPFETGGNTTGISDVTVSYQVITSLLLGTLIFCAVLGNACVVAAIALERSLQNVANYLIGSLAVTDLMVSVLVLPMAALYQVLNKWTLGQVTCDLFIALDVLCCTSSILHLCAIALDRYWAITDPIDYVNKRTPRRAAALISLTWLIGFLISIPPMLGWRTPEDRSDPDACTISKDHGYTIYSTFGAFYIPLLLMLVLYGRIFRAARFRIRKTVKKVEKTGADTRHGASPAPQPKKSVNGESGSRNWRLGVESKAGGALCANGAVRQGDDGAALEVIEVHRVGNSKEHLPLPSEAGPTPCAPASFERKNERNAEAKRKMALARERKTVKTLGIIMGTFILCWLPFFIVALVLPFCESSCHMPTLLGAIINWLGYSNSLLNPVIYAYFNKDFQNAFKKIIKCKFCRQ
Response body: numeric value in nM, unit text excluded.

Example results:
Clc1ccc(N2CCN(CCCCc3nc4ccccc4s3)CC2)cc1: 90.5
c1ccc2c(c1)CN(CCCCc1nc3ccccc3s1)C2: 111
O=C(CCCN1CCC(c2ccccc2)CC1)c1nc2ccccc2s1: 85
O=C(CCCCN1CCN(c2ncccn2)CC1)c1nc2ccccc2s1: 3.6
O=C(CCCCN1CCN(c2ccc(Cl)cc2)CC1)c1nc2ccccc2s1: 28.3

Ask: Which Ki is listed for O=C(CCCCN1CCC2(CC1)C(=O)NCN2c1ccccc1)c1nc2ccccc2s1 ?
Result: 103

Ask: Which Ki is listed for O=C(CCCN1CCN(c2ncccn2)CC1)c1nc2ccccc2s1 ?
Result: 63

Ask: Which Ki is listed for O=C(CCCCN1CCC(n2c(=O)[nH]c3cc(Cl)ccc32)CC1)c1nc2ccccc2s1 ?
Result: 252

###

- Study system: UniProt P31645
- Condition label: read-out: Ki
Consider the cut-off 500 nM. If the recorded Ki is strictly smaller, the label is YES; if not, the label is NO.

O=C(CCCCN1CCC2(CC1)C(=O)NCN2c1ccccc1)c1nc2ccccc2s1: YES
O=C(CCCCN1CCC(n2c(=O)[nH]c3cc(Cl)ccc32)CC1)c1nc2ccccc2s1: NO
c1ccc2c(c1)CN(CCCCc1nc3ccccc3s1)C2: YES
c1ccc2c(c1)CCN(CCCCc1nc3ccccc3s1)C2: NO

Ask: For this molecule, is Ki lower than 500 nM? Clc1ccc(N2CCCN(CCCc3nc4ccccc4s3)CC2)cc1
Result: YES

Ask: For this molecule, is Ki lower than 500 nM? O=C(CCCCN1CCC(c2ccccc2)CC1)c1nc2ccccc2s1
Result: YES

Ask: For this molecule, is Ki lower than 500 nM? O=C(CCCN1CCN(c2ccccc2)CC1)c1nc2ccccc2s1
Result: NO

Ask: For this molecule, is Ki lower than 500 nM? Clc1ccc(N2CCCN(CCCCc3nc4ccccc4s3)CC2)cc1
Result: YES

Ask: For this molecule, is Ki lower than 500 nM? O=C(CCCCN1CCCN(c2ccc(Cl)cc2)CC1)c1nc2ccccc2s1
Result: YES

Ask: For this molecule, is Ki lower than 500 nM? Clc1ccc(N2CCN(CCCc3nc4ccccc4s3)CC2)cc1
Result: NO

###

Here's a batch of compounds along with measured pKi for UniProt P28223.
Sequence (P28223 whole entry): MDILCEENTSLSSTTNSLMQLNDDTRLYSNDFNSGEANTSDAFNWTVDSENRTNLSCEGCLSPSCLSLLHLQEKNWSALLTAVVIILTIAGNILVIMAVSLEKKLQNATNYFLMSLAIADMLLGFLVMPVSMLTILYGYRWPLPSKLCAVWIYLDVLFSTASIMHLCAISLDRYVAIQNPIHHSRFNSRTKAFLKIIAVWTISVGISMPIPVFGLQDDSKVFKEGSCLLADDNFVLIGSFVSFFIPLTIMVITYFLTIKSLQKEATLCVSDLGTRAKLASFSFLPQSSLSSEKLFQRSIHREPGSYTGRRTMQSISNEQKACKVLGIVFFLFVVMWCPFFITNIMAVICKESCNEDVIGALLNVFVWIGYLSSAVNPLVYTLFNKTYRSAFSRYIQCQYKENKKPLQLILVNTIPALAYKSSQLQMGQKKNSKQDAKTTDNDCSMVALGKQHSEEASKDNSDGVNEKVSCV
API: returns pKi as number; meaning -log10 of concentration in mol/L.

Clc1ccc(N2CCN(CCCCc3nc4ccccc4s3)CC2)cc1: 6.88
OC1(c2ccc(Cl)cc2)CCN(CCCCc2nc3ccccc3s2)CC1: 5.37
c1cnc(N2CCN(CCCCc3nc4ccccc4s3)CC2)nc1: 6.65
O=C(CCCN1CCN(c2ccc(Cl)cc2)CC1)c1nc2ccccc2s1: 5.70
O=C(CCCCN1CCC2(CC1)C(=O)NCN2c1ccccc1)c1nc2ccccc2s1: 5.43

Ask: Record O=C(CCCCN1CCN(c2ccc(Cl)cc2)CC1)c1nc2ccccc2s1 : what is its pKi with UniProt P28223?
Result: 6.28

Ask: Record c1ccc2c(c1)CCN(CCCCc1nc3ccccc3s1)C2 : what is its pKi with UniProt P28223?
Result: 5.42

Ask: Record O=C(CCCCN1CCC(n2c(=O)[nH]c3cc(Cl)ccc32)CC1)c1nc2ccccc2s1 : what is its pKi with UniProt P28223?
Result: 5.81
